Target: T1, Human Nectin-4 (human, UniProt Q96NY8 32-349, limits assumed)
T1 construct: Protein immobilised on the SPR chip; also called target protein
T1 sequence: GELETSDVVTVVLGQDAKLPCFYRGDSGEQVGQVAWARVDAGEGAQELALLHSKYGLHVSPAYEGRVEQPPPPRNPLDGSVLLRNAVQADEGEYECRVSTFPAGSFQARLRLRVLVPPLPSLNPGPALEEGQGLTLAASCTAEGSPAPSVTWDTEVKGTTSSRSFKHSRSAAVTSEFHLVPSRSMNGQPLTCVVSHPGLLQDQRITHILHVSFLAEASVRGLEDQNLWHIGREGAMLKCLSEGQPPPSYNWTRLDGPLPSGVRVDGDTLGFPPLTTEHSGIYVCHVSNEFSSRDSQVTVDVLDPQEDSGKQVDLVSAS
Test: Table 2B (DELFIA or SPR)
Bridges are numbered along the chain shown (N, C = ends). Primed or numbered codes have the meaning given here. Where no end group is shown, it is not given here. [ ]: non-standard residue; d: D form. The star is where a group is joined. Biotin = O=C1N[C@H]2[C@H](CS[C@H]2CCCCC(=O)*)N1; hydroxy‑norleucine = hydroxy-norleucine residue; Cit = NC(=O)NCCC[C@H](N)C(=O)O; PEG4″ = 4(ethylene glycol)
Note to self: use satisfied only for Kd readings below 1 nM; a reading exactly at 1 nM still gets not satisfied.

Observe how each entry below is paired with its result.
{Biotin-PEG4″}-CEYDEQFFTALARLRGGDICYYIQEQFATVPGLCIEEILDQLGCS-OH (designed binder, disulfide 1-34, 20-44) [C131] = not satisfied
{Biotin-PEG4″}-CDYDEEFFTALA[Cit]LRGGDICEYIQAKFQYLPGLCIEEILDNLGCS-OH (designed binder, disulfide 1-34, 20-44) [C176] = not satisfied
H-CEYDEEFFAGLKRLRGGDICYYIKKKFDKVPDLCIEEILDKLGC-OH (designed binder, disulfide 1-34, 20-44) [C7] = not satisfied
Ac-CEYDEEFFTALKKLRGGDICYYIQQAFNYLPGICIEEILDNLGC-OH (designed binder, disulfide 1-34, 20-44) [C104] = not satisfied
{Biotin-PEG4″}-CEYDEEFFTALKRLRGGDICYYIQKAFQYLPGLCIEEILDNLGCS (designed binder, disulfide 1-34, 20-44) [C123] = not satisfied
Ac-CEYDEEFFLGLKRLRGGDICYYIKKKFKKVPDLCIEEILKKLGC-OH (designed binder, disulfide 1-34, 20-44) [C64] = not satisfied

We now examine a further binder.
Task: Determine whether this binder shows Kd lower than 1 nM (ties excluded): {Biotin-PEG4″}-CEYDEEFFTALA[Cit]LRGDDICSYIQA[hydroxy‑norleucine]FQYLPGLCIEEILDNLGCS-OH (designed binder, disulfide 1-34, 20-44) [C170]
Output: not satisfied

Ref: patent US20260151519A1
